# condition_description: in decalin, 331.15 K
measured_quantity: solubility (mole fraction)
Could you respond with only the numeric value?

Field request: solubility (mole fraction) | item: c1ccc2c(c1)sc1ccccc12
0.101

###

# condition_description: in 2-(2-butoxyethoxy)ethanol, 282.75 K
measured_quantity: solubility (mole fraction)

Field request: solubility (mole fraction) | item: c1ccc2c(c1)sc1ccccc12
0.063
